System: Kunming mice
Experiment: Influence on autonomic activity of normal mice (ZIL-2 mice autonomic activity meter, counts within 10 min)
Type: in vivo
Conditions: intragastric, 50 mg/kg, 2 h after administration, x ± s, n = 10
The entries below are paired with their reported Times of activities in 2 h after drug administration/10 min.

COc1c(O)cc(C2CC(=O)c3c(O)cc(O)cc3O2)cc1C(=O)O (centres unmarked)	253.5 ± 40.4 /10 min

In: Record COc1cc(OC)c2c(=O)cc(-c3ccc(OC)c(O)c3)oc2c1 [Example 4, 3′-hydroxyl-5,7,4′-trimethoxyl-flavone] : what is its Times of activities in 2 h after drug administration/10 min with Kunming mice?
Out: 223.5 ± 41.3 /10 min

In: GET /values?readout=Times of activities in 2 h after drug administration/10 min&system=Kunming mice&item= COc1ccc(-c2cc(=O)c3c(OC)c(OC)c(OC)cc3o2)cc1OC
Out: 260.1 ± 58.2 /10 min

In: For Kunming mice, provide Times of activities in 2 h after drug administration/10 min of CCCc1ccc(C2CC(=O)c3c(O)cc([N+](=O)[O-])cc3O2)cc1OC (centres unmarked) please.
Out: 250.7 ± 42.8 /10 min

In: I'm curious: which Times of activities in 2 h after drug administration/10 min was measured for Cc1cc(C2CC(=O)c3c(cccc3[N+](=O)[O-])O2)ccc1Oc1ccccc1 (centres unmarked) tested on Kunming mice?
Out: 151.3 ± 57.0 /10 min

In: Checklist item: Times of activities in 2 h after drug administration/10 min tested on Kunming mice, entry CC=Cc1cc(I)cc2c1OC(c1cccc(C(=O)O)c1)CC2=O (centres unmarked) , value?
Out: 131.8 ± 62.3 /10 min

In: For Kunming mice, provide Times of activities in 2 h after drug administration/10 min of COc1cc(OC)c2c(=O)cc(-c3cc(OC)c(OC)c(OC)c3)oc2c1 please.
Out: 168.5 ± 57.9 /10 min

In: Requested read-out Times of activities in 2 h after drug administration/10 min, target or system Kunming mice, entry COc1ccc(C2CC(=O)c3c(cc(OC)c(OC)c3OC)O2)cc1 (centres unmarked)
Out: 185.5 ± 56.6 /10 min
